System: 786-0
protocolNotes: NCI tumour cell line growth inhibition, 48 h
Activity calls are given as the source filed them. Rule as the data show it: active = GI50 up to about 1.1 µM and inactive = higher.
measuredMetric: GI50

Worked cases, answers included:
compound="NC(Cc1ccc(OCc2ccccc2)cn1)C(=O)OCc1ccccc1 (stereo not given)" experimentalresult="> 100 µM (inactive)"
compound=COC(=O)c1ccccc1/C=C1\Cc2ccc(C)c(C)c2C1=O experimentalresult="51.4 µM (inactive)"
compound=Cc1cccc(-n2c(C)nc3ccc(NC(=S)Nc4ccccc4)cc3c2=O)c1 experimentalresult="> 100 µM (inactive)"
compound="COc1cc(S(=O)(=O)Nc2ccc(-c3csc(N4C(=O)C(C)SC4c4cccs4)n3)cc2)ccc1Cl (stereo not given)" experimentalresult="34.6 µM (inactive)"
compound="Cc1cn(C2CCC(/C=N\\O)O2)c(=O)[nH]c1=O (stereo not given)" experimentalresult="> 100 µM (inactive)"

Prompt: Missing value: GI50, 786-0, entry C=C(C)[C@@H]1CC[C@@H]2C(=CC[C@]3(C)C([C@H](C)CC/C=C(/C)C(=O)O)CC[C@@]23C)[C@@]1(C)CCC(=O)O (stereo not given in full) . Fill in?
Response: 21.8 µM (inactive)

Prompt: Missing value: GI50, 786-0, entry Cc1ccc(C2=CC(=O)OC(C[P+](c3ccccc3)(c3ccccc3)c3ccccc3)(c3ccccc3)O2)cc1 (stereo not given) . Fill in?
Response: 19.3 µM (inactive)

Prompt: Missing value: GI50, 786-0, entry COc1cc2c(cc1C[N+](C)(C)CSc1ccccc1)-c1ccccc1CC2 . Fill in?
Response: 6.07 µM (inactive)

Prompt: Missing value: GI50, 786-0, entry CCN(CC)c1ccc2cc(C(=O)NCc3ccccc3)c(=N)oc2c1 . Fill in?
Response: > 62.1 µM (inactive)

Prompt: Missing value: GI50, 786-0, entry CCCCNC(=O)NNC(=O)c1cc(/C=C/c2cccc([N+](=O)[O-])c2)ncn1 . Fill in?
Response: > 100 µM (inactive)

###

Test system: K562
protocolNotes: NCI tumour cell line growth inhibition, 48 h
Active and inactive are the calls of the source. Cut-off read from the data, not from the text of the source: active = GI50 up to about 1.1 µM and inactive = higher.
measuredMetric: GI50

Worked cases, answers included:
compound="CCOC(=O)c1ccc(/N=N/N(C)C(=O)C(C)N)cc1 (stereo not drawn)" experimentalresult="> 100 µM (inactive)"
compound=Cc1ccnc(NS(=O)(=O)c2ccc(NC3=CC(=O)C(=O)c4ccccc43)cc2)n1 experimentalresult="> 100 µM (inactive)"

Could you now look at the following compound, please?
Prompt: # lookup: GI50 of COc1cc2c(cc1OCCN1C(=O)c3cccc4cccc(c34)C1=O)N=C[C@@H]1CCCN1C2=O
Response: 1.15 µM (inactive)

###

Reported GI50 values follow for various molecules
Tested on: SK-MEL-28
protocolNotes: NCI tumour cell line growth inhibition, 48 h
The source made the active and inactive calls. Cut-off read from the data, not from the text of the source: active = GI50 up to about 1.1 µM and inactive = higher.

Worked cases, answers included:
molecule=COc1cc2c[n+](C)c3c4cc(OC)c(OCc5ccccc5)cc4c(OCc4ccccc4)cc3c2cc1OC experimentalresult="5.48 µM (inactive)"
molecule=Cc1cc(=O)oc2c(CN3CCCCC3)c(O)ccc12 experimentalresult="> 100 µM (inactive)"
molecule="CCOC(=O)C1=CC(C)(C(=O)OCC)Nc2c(nc(SC)[nH]c2=O)N1 (stereo unspecified)" experimentalresult="> 10 µM (inactive)"
molecule=Oc1nc(S)nc2c1CN(CCCN1CCOCC1)CN2 experimentalresult="> 100 µM (inactive)"
molecule=COc1cccc2c(Nc3ccc(S(=O)(=O)Nc4ncccn4)cc3)c3ccc([N+](=O)[O-])cc3nc12 experimentalresult="> 100 µM (inactive)"

Prompt: # lookup: GI50 of CC(C)(C)C1=CC(=C2C=Cc3cc(O)ccc3O2)C=C(C(C)(C)C)C1=O
Response: 1.73 µM (inactive)

###

System: PC-3
protocolNotes: NCI tumour cell line growth inhibition, 48 h
Calls of active or inactive are those of the source. Cut-off read from the data, not from the text of the source: active = GI50 up to about 1.1 µM and inactive = higher.
Reported GI50 values follow for various compounds

compound="CC(=O)OCC1CCC(=C2C(=O)OC(C)(C)OC2=O)N1 (centres undefined)" measuredmetric=GI50 experimentalresult="> 100 µM (inactive)"
compound="Cc1ccc(C2=CC(=O)OC(C[P+](c3ccccc3)(c3ccccc3)c3ccccc3)(c3ccccc3)O2)cc1 (centres undefined)" measuredmetric=GI50 experimentalresult="23.1 µM (inactive)"
compound=O=C(CSc1nnc(-c2ccccn2)s1)N/N=C/c1ccccc1 measuredmetric=GI50 experimentalresult="> 100 µM (inactive)"
compound=C=CCn1c2c(c3ccccc3c1=O)C(=O)c1ccccc1-2 measuredmetric=GI50 experimentalresult="> 100 µM (inactive)"
compound="C=C(C)[C@@H]1CC[C@@H]2C(=CC[C@]3(C)C([C@H](C)CC/C=C(/C)C(=O)O)CC[C@@]23C)[C@@]1(C)CCC(=O)O (some centres undefined)" measuredmetric=GI50 experimentalresult="24.9 µM (inactive)"
compound=COC(=O)c1cc(C)ccc1/C=C1\Cc2c(C)cc(C)cc2C1=O measuredmetric=GI50 experimentalresult="> 39.8 µM (inactive)"
compound="O=C(CC(Cc1ccccc1)c1ccc(Oc2ccccc2)cc1)Nc1cccc(Cl)c1 (centres undefined)" measuredmetric=GI50 experimentalresult="3.7 µM (inactive)"
compound=O=C(O)CN1CCN(CC(=O)N2CCN(C(=O)OCc3ccccc3)CC2)CCN(CC(=O)O)CCN(CC(=O)N2CCN(C(=O)OCc3ccccc3)CC2)CC1 measuredmetric=GI50 experimentalresult="> 100 µM (inactive)"

Could you now look at the following compound, please?
Prompt: # lookup: GI50 of CC(Cc1ccccc1)Nc1ncnc2c1ncn2C1OC(CO)CC1O (centres undefined)
Response: > 100 µM (inactive)

###

Tested on: UACC-257
protocolNotes: NCI tumour cell line growth inhibition, 48 h
The source made the active and inactive calls. Cut-off read from the data, not from the text of the source: active = GI50 up to about 1.1 µM and inactive = higher.
Answer with one of the outcomes given here: active, inactive

compound=COc1cc2c[n+](C)c3c4cc(OC)c(OCc5ccccc5)cc4c(OCc4ccccc4)cc3c2cc1OC labelclass=inactive
compound=CCN(CC)c1ccc2cc(C(=O)NCc3ccccc3)c(=N)oc2c1 labelclass=inactive
compound=CC(=O)NNc1nc(C)c(C(=O)NNC(=O)C(=O)Nc2ccccc2C#N)s1 labelclass=inactive
compound="COc1cc(C2c3cc4c(cc3[C@@H](N(C)c3ccc(N(C)C)cc3)C3COC(=O)C23)OCO4)cc(OC)c1O (some centres undefined)" labelclass=inactive
compound=O=c1[nH]nc(-c2ccccc2)n1-n1cccc1 labelclass=inactive

Prompt: // return assay outcome for COC(=O)c1ccc2c(c1)sc1nc(-c3ccc(OC)cc3)cn12
Response: inactive

Prompt: // return assay outcome for CCOC(=O)NC1=C(N2CC2)C(=O)C(NC(=O)OCC)=C(N2CC2)C1=O
Response: inactive

Prompt: // return assay outcome for C/C1=C/C(C)CC(C)OC(=O)C(C)NC(=O)C(Cc2ccc(O)c(I)c2)N(C)C(=O)C(C)NC(=O)C(C)C1 (centres undefined)
Response: active

Prompt: // return assay outcome for CC1=NN=C(N)NC1=CC(Sc1ccc(Cl)cc1)c1c(O)ccc2ccccc12 (centres undefined)
Response: inactive

###

Test system: MDA-MB-435
protocolNotes: NCI tumour cell line growth inhibition, 48 h
Calls of active or inactive are those of the source. Cut-off read from the data, not from the text of the source: active = GI50 up to about 1.1 µM and inactive = higher.
Reported GI50 values follow for various compounds

Worked cases, answers included:
compound=Cn1c(C(C)(C)OC(=O)Oc2ccccc2)cnc1[N+](=O)[O-] measuredmetric=GI50 experimentalresult="> 100 µM (inactive)"
compound=Oc1ccc[nH]c1=[Se] measuredmetric=GI50 experimentalresult="41.8 µM (inactive)"
compound=O=C1c2ccccc2C(=O)N1NC1=NCCN1 measuredmetric=GI50 experimentalresult="> 100 µM (inactive)"
compound="CC(=O)OC(C#N)CC(C)(C)/[N+]([O-])=[N+](\\[O-])C(C)(C)CC(C#N)OC(C)=O (stereo unspecified)" measuredmetric=GI50 experimentalresult="16.1 µM (inactive)"
compound="COc1ccc(CN(Cc2ccc(OC)cc2)C(=O)CC2(O)C=CCC2)cc1 (stereo unspecified)" measuredmetric=GI50 experimentalresult="71.4 µM (inactive)"
compound=CN(C)CCNC(=O)c1cnn(C)c1[N+](=O)[O-] measuredmetric=GI50 experimentalresult="> 100 µM (inactive)"

Prompt: # lookup: GI50 of Cc1ccc(C)c(NC(=O)NCc2ccc(Cl)cc2)c1
Response: > 100 µM (inactive)

Prompt: # lookup: GI50 of COc1cccc2c(Nc3ccc(S(=O)(=O)Nc4ncccn4)cc3)c3ccc([N+](=O)[O-])cc3nc12
Response: 45.6 µM (inactive)

Prompt: # lookup: GI50 of CC1(c2ccccc2)CCN(C2CC2)CO1 (stereo unspecified)
Response: 49.9 µM (inactive)

Prompt: # lookup: GI50 of Cc1nn(C(=O)c2ccncc2)c2c1C(c1ccc([N+](=O)[O-])cc1)SC(=N)N2 (stereo unspecified)
Response: > 100 µM (inactive)

Prompt: # lookup: GI50 of COc1cc(S(=O)(=O)Nc2ccc(-c3csc(N4C(=O)C(C)SC4c4cccs4)n3)cc2)ccc1Cl (stereo unspecified)
Response: 30 µM (inactive)

Prompt: # lookup: GI50 of CO[C@@H]1C[C@H]2[C@@H]3CC[C@H]([C@@H](C)CO)[C@@]3(C)CC[C@@H]2[C@@]2(C)CC[C@H]3C[C@]312
Response: 27.5 µM (inactive)
